# Tested on: Staphylococcus aureus SA1199B
# Format: cell-based
# Protocol: The MIC's were determined using a standard broth micro-dilution assay.
ENDPOINT_LABEL: MIC (µg/mL)
A number alone suffices; assume µg/mL.

Illustrative cases are given below, each with its answer.
{"COMPOUND": "CNC(CC(C)C)C(=O)NC1C(=O)NC(CC(N)=O)C(=O)NC2C(=O)NC3C(=O)NC(C(=O)NC(C(=O)O)c4cc(O)cc(O)c4-c4cc3ccc4O)C(OC3CC(C)(N)C(O)C(C)O3)c3ccc(c(Cl)c3)Oc3cc2cc(c3OC2OC(CO)C(O)C(O)C2OC2CC(C)(NCc3ccc(I)s3)C(O)C(C)O2)Oc2ccc(cc2Cl)C1O (stereo not drawn)", "MIC, µg/mL": 1}
{"COMPOUND": "CN[C@H](CC(C)C)C(=O)N[C@H]1C(=O)N[C@@H](CC(N)=O)C(=O)N[C@H]2C(=O)N[C@H]3C(=O)N[C@H](C(=O)N[C@H](C(=O)O)c4cc(O)cc(O)c4-c4cc3ccc4O)[C@H](O[C@H]3C[C@](C)(N)[C@@H](O)[C@H](C)O3)c3ccc(c(Cl)c3)Oc3cc2cc(c3O[C@@H]2O[C@H](CO)[C@@H](O)[C@H](O)[C@H]2O[C@H]2C[C@](C)(NCc3ccc(-c4ccc(C)cc4)cc3)[C@@H](O)[C@H](C)O2)Oc2ccc(cc2Cl)[C@H]1O", "MIC, µg/mL": 1}

Now for the compound whose MIC we want.
input: Param readout= MIC; system= Staphylococcus aureus SA1199B; entry= CNC(CC(C)C)C(=O)NC1C(=O)NC(CC(N)=O)C(=O)NC2C(=O)NC3C(=O)NC(C(=O)NC(C(=O)O)c4cc(O)cc(O)c4-c4cc3ccc4O)C(OC3CC(C)(N)C(O)C(C)O3)c3ccc(c(Cl)c3)Oc3cc2cc(c3OC2OC(CO)C(O)C(O)C2OC2CC(C)(NCCc3ccc(OCc4ccccc4)cc3)C(O)C(C)O2)Oc2ccc(cc2Cl)C1O (stereo not drawn) ; returns value.
output: 0.5

* * *

# Test system: Staphylococcus aureus 447
# EXPERIMENT_SUMMARY: broth micro-dilution MIC
# Assay type: cell-based
ENDPOINT_LABEL: MIC (µg/mL)
A number alone suffices; assume µg/mL.

input: Look up MIC: CNC(CC(C)C)C(=O)NC1C(=O)NC(CC(N)=O)C(=O)NC2C(=O)NC3C(=O)NC(C(=O)NC(C(=O)O)c4cc(O)cc(O)c4-c4cc3ccc4O)C(OC3CC(C)(N)C(O)C(C)O3)c3ccc(c(Cl)c3)Oc3cc2cc(c3OC2OC(CO)C(O)C(O)C2OC2CC(C)(NCc3ccc(-c4cccs4)cc3)C(O)C(C)O2)Oc2ccc(cc2Cl)C1O (centres unmarked)
output: 1

* * *

Quick reference: ED50 of the listed items.
# System: Streptococcus pyogenes
# EXPERIMENT_SUMMARY: mouse protection, experimentally-induced infection
# Assay type: in vivo
# RUN_PARAMETERS: mice infected with Streptococcus pyogenes, two doses
A number alone suffices; assume mg/kg/2.

{"COMPOUND": "CN[C@@H](CC(C)C)C(=O)N[C@H]1C(=O)N[C@H](CC(N)=O)C(=O)N[C@H]2C(=O)N[C@H]3C(=O)N[C@@H](C(=O)NC(C(=O)O)c4cc(O)cc(O)c4-c4cc3ccc4O)[C@@H](O[C@H]3C[C@](C)(N)[C@H](O)[C@@H](C)O3)c3ccc(cc3)Oc3cc2cc(c3O[C@H]2O[C@@H](CO)[C@@H](O)[C@H](O)[C@@H]2O[C@H]2C[C@](C)(N)[C@H](O)[C@@H](C)O2)Oc2ccc(cc2)[C@@H]1O (some centres unmarked) [Compound A82846C, A82846C, reference compound]", "TARGET_UNDER_TEST": "Streptococcus pyogenes", "ENDPOINT_LABEL": "ED50", "RECORDED_NUMBER": 1.5}

Now for the compound whose ED50 we want.
input: Look up ED50: CN[C@H](CC(C)C)C(=O)N[C@H]1C(=O)N[C@@H](CC(N)=O)C(=O)N[C@H]2C(=O)N[C@H]3C(=O)N[C@H](C(=O)N[C@H](C(=O)O)c4cc(O)cc(O)c4-c4cc3ccc4O)[C@H](O[C@H]3C[C@](C)(N)[C@@H](O)[C@H](C)O3)c3ccc(c(Cl)c3)Oc3cc2cc(c3O[C@@H]2O[C@H](CO)[C@@H](O)[C@H](O)[C@H]2O[C@H]2C[C@](C)(N)[C@@H](O)[C@H](C)O2)Oc2ccc(cc2Cl)[C@H]1O [Compound A82846B, A82846B, reference compound]
output: 0.12
